Record form. Attribute: Percent Effect. Fill in for each entry.
Target or system: Ubiquitin-activating enzyme e1, putative (Leishmania donovani (strain BPK282A1)) (UniProt E9BSI1)
Sequence (E9BSI1 as listed by the source): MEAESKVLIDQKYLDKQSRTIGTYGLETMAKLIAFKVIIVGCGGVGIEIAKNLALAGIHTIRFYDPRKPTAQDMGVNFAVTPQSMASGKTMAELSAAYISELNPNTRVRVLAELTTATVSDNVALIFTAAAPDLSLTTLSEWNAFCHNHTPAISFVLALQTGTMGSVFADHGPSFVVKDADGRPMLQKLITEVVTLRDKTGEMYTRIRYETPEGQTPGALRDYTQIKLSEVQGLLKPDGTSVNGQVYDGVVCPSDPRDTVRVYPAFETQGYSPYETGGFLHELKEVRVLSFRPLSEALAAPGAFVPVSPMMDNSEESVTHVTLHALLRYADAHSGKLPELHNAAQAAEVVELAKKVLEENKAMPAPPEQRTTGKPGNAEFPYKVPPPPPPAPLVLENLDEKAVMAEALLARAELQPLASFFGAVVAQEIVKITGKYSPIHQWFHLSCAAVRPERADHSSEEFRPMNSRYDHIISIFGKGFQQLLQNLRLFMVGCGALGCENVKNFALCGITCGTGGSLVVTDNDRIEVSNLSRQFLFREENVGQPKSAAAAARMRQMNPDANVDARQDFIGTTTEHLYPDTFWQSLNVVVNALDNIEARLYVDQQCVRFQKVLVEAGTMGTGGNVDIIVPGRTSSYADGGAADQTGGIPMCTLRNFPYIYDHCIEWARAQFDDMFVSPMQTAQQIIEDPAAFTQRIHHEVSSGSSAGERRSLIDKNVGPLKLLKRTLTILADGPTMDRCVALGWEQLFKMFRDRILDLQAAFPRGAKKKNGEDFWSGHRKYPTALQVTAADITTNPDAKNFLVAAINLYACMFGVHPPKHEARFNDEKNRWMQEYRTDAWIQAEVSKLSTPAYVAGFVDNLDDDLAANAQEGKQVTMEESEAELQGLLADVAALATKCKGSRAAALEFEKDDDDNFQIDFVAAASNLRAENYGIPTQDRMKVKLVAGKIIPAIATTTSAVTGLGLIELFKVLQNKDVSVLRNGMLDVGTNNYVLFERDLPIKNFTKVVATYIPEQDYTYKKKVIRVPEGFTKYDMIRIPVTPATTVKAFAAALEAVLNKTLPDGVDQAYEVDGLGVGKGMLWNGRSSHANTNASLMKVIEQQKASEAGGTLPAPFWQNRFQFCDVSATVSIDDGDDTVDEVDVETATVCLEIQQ
Method: Leishmania donovani Ubiquitin Activating Enzyme (LdE1)
Assay type: functional
Set-up: scale not given: direction of the effect not stated beside the values
Assay context: 30 µM
Entries with a potency or affinity are not part of this list.
Answers are plain numbers, in %.

Answered examples (3):
Compound	Unit of measure	Obs value
CCOC(=O)NC(C(=O)NCc1ccc(N2CCCCC2)nc1)C(C)C (stereo unspecified)	%	13.5
CNC(=O)c1nc2c(s1)CCN(C(=O)c1cccnc1)CC2	%	0
COc1cc(C)nc(N2CCN(C(=O)c3ccccc3C)CC2)n1	%	2.7

For every record below, what is its Percent Effect?
1. CC(C)c1cc(NC(=O)c2ccc(NC3CC3)nc2)[nH]n1
2. CCCS(=O)(=O)c1ncc(CN2CCC(CO)CC2)n1CC1CCCO1 (stereo unspecified)
3. CCCc1n[nH]c(C2CN(CCNS(=O)(=O)CC)CCO2)n1 (stereo unspecified)

OUTPUT:
1: 13; 2: -6.94; 3: 19
